Provide the recorded self-splicing fitness (ln) for the entries that follow.
- Measurement notes: self-splicing fitness, log relative to wild type (ln ratio); higher = more splicing; Tetrahymena group I intron in knt gene, E. coli kanamycin selection, DiMSum; sequences stand for … in CUCUCU…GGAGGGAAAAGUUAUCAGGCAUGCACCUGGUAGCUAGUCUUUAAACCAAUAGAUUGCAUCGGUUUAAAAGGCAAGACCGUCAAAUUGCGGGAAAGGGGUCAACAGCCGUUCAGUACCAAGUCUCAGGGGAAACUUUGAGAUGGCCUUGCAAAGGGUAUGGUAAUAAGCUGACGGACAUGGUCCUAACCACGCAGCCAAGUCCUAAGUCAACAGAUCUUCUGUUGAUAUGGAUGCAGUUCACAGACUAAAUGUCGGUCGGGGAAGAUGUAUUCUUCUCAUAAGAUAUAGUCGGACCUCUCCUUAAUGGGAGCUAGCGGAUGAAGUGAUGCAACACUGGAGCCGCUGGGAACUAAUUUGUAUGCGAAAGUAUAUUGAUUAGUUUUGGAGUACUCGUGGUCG;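 further: selection with 25 µg/mL kanamycin versus none on LB agar overnight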
- Condition info: 37 °C
Answer with a number only.

Which self-splicing fitness (ln) value belongs to GAUAAGCAAUAUUACGGCGA ? 0.114

Which self-splicing fitness (ln) value belongs to AAGUAGCAAUAUUACGUAGC ? -2.3

Which self-splicing fitness (ln) value belongs to AAAUAGCAAUAUUACGACCC ? -0.544

Which self-splicing fitness (ln) value belongs to ACGCAGCAAUAUUACGCGUU ? -2.42

Which self-splicing fitness (ln) value belongs to CCAAAGCAAUAUUACGUCGU ? -2.75

Which self-splicing fitness (ln) value belongs to CCCCAGCAAUAUUACGGUUU ? -3.12

Which self-splicing fitness (ln) value belongs to GCGAAGCAAUAUUACGAACG ? -0.889

Which self-splicing fitness (ln) value belongs to GUCUAGCAAUAUUACGCUCA ? 0.103

Which self-splicing fitness (ln) value belongs to UAGGAGCAAUAUUACGGCGA ? -1.46

Which self-splicing fitness (ln) value belongs to GUACAGCAAUAUUACGUGCG ? -1.21

Which self-splicing fitness (ln) value belongs to CGUGAGCAAUAUUACGCCCU ? -1.98

Which self-splicing fitness (ln) value belongs to GAAAAGCAAUAUUACGGCUA ? 0.451

Which self-splicing fitness (ln) value belongs to AAUGAGCAAUAUUACGCCGU ? -2.55

Which self-splicing fitness (ln) value belongs to GCGAAGCAAUAUUACGGUCA ? -1.36

Which self-splicing fitness (ln) value belongs to CCUAAGCAAUAUUACGCAAC ? -3.03

Which self-splicing fitness (ln) value belongs to AACAAGCAAUAUUACGCCGG ? -0.963

Which self-splicing fitness (ln) value belongs to CCGCAGCAAUAUUACGGUGC ? -2.63

Which self-splicing fitness (ln) value belongs to ACUUAGCAAUAUUACGCGGA ? -0.613

Which self-splicing fitness (ln) value belongs to CCGUAGCAAUAUUACGUGCG ? -1.68

Which self-splicing fitness (ln) value belongs to CAUAAGCAAUAUUACGAUGA ? -0.929

Which self-splicing fitness (ln) value belongs to UAAAAGCAAUAUUACGAACG ? 0.847

Which self-splicing fitness (ln) value belongs to GUAAAGCAAUAUUACGGGAU ? -0.341

Which self-splicing fitness (ln) value belongs to GUUCAGCAAUAUUACGCGUA ? -0.287

Which self-splicing fitness (ln) value belongs to UAGCAGCAAUAUUACGUGGU ? -2.79

Which self-splicing fitness (ln) value belongs to CGAAAGCAAUAUUACGGCAA ? -1.03

Which self-splicing fitness (ln) value belongs to AUAUAGCAAUAUUACGGUAG ? -1.74

Which self-splicing fitness (ln) value belongs to UCAUAGCAAUAUUACGCAUC ? -3.1

All values here come from the supplement of paper PMC7877785.
